MEASUREMENT_NOTES: chemical genetic growth profiling, strain panel (AID 1159580);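 also: tested at 20 µM; growth read once vehicle control cultures reached saturation at 30 °C; 1 = growth at the plate median or of vehicle wells; lower values mean less growth of the strain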
EXPERIMENTAL_SETUP: S. cerevisiae deletion strains, growth OD, locus YBR171W, strain sec66, hits give low values
Among all 5,500 compounds or so, about 2,000 (36%) were called active. Roughly 18% stayed inconclusive and do not appear here. This is one part of the list.
Recorded normalized growth, one value per entry.
Answer with the value's number alone.

These recorded examples may help you get a feel for the data.
INSERT INTO assay_data (molecule, value) VALUES
  ('O=C(NC(=O)c1c(F)cccc1F)Nc1cc(Cl)c(OC(F)(F)C(F)C(F)(F)F)cc1Cl (stereo not given)', 0.987),
  ('CC1(C)O[C@@H]2[C@@H](CO[C@@]3(COS(N)(=O)=O)OC(C)(C)O[C@@H]23)O1', 1.01),
  ('NC(=O)c1cc[n+](CC2=C(C(=O)O)N3C(=O)C(NC(=O)C(c4ccccc4)S(=O)(=O)[O-])C3SC2)cc1 (stereo not given)', 1),
  ('CCCCC(CC)CN=C(N)NC(N)=NCCCCCCN=C(N)NC(N)=NCC(CC)CCCC (stereo not given)', 0.0773);

Data request: Which normalized growth is reported for this molecule? COc1ccccc1OCC(O)CN1CCN(CC(=O)Nc2c(C)cccc2C)CC1 (stereo not given)
Data returned: 1.02

Ref: PubChem BioAssay AID1159580
